- test_name: Pharmacokinetics on single dose in mice (iv and po)
- Format: in vivo, male ICR mice
- test_conditions: male, mouse, plasma; ICR mice, po 10 mg/kg
experimental_readout: AUC(0-t) (ng·h/mL)
One number for each entry, in ng·h/mL.

C=CCn1c(=O)c2cnc(Nc3ccc(N4CCN(C)CC4)cc3)nc2n1-c1cccc(C(C)(C)O)n1 [AZD1775, reference compound] yielded AUC(0-t) of 396

###

Give IC50 for every item shown.
- measured_target: CYP3A4 (Homo sapiens (Human), UniProt P08684)
- Sequence (P08684 whole entry): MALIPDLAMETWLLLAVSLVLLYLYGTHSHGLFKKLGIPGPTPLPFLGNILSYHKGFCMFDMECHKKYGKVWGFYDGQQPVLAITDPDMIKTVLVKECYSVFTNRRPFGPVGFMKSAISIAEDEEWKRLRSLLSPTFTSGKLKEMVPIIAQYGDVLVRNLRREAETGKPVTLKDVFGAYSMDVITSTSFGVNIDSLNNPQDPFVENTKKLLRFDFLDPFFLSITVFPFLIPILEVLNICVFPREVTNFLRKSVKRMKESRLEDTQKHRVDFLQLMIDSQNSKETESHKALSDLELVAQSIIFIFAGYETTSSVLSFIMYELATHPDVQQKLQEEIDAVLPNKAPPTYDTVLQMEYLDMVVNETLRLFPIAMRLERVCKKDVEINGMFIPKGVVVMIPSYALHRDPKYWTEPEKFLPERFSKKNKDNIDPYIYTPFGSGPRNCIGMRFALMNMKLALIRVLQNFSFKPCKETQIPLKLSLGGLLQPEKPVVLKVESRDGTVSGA
- test_name: Cytochrome P450 inhibition (fluorescence), CYP3A4
- Format: in vitro ADME
- test_conditions: read-out: IC50 CYP3A4

# count of solved cases: 2
compound	recorded_value
C=CCn1c(=O)c2cnc(Nc3ccc(N4CC5CC(C4)N5C)cc3)nc2n1-c1ccc2c(n1)[C@@](C)(O)C1(CC2)CC1	> 10 µM
C=CCn1c(=O)c2cnc(Nc3ccc(N4CCC5(CCN(C)CC5)CC4)cc3)nc2n1-c1ccc2c(n1)[C@](C)(O)C1(CC2)CC1 (racemic)	> 10 µM

Here's the next entry for you.
The reported IC50 value, CYP3A4 (Homo sapiens (Human), UniProt P08684), for C=CCn1c(=O)c2cnc(Nc3ccc(N4CCC5(CCN(C)CC5)CC4)cc3)nc2n1-c1ccc2c(n1)[C@H](O)C1(CC2)CC1 [Compound 37b] reads > 10 µM

###

- test_name: Pharmacokinetics on single dose in Beagle dogs (iv and po)
- Assay type: in vivo, male Beagle dogs
- test_conditions: male, dog, plasma, po 10 mg/kg, read-out: Tmax
experimental_readout: Tmax
Respond with the figure and its unit, in that order.

C=CCn1c(=O)c2cnc(Nc3ccc(N4CCN(C)CC4)cc3)nc2n1-c1cccc(C(C)(C)O)n1 [AZD1775, reference compound] yielded Tmax of 1.67 h

###

- test_name: Metabolic stability in liver microsomes, monkey
- Format: in vitro ADME
experimental_readout: T1/2 liver microsomes Monkey (min)
Numbers only, in min.

# count of solved cases: 3
compound	unit_spec	T1/2 liver microsomes Monkey
C=CCn1c(=O)c2cnc(Nc3ccc(N4CCC(N(C)C)CC4)c(C)c3)nc2n1-c1ccc2c(n1)[C@@](C)(O)C1(CC2)CC1 (single isomer, unassigned) [Compound 52a]	min	14.22
C=CCn1c(=O)c2cnc(Nc3ccc(N4C[C@H]5CN(C)C[C@H]5C4)cc3)nc2n1-c1ccc2c(n1)C(O)(CC)C1(CC1)C2 (stereo partly drawn)	min	17.74
C=CCn1c(=O)c2cnc(Nc3ccc(N4CCC5(CCN(C)CC5)CC4)cc3)nc2n1-c1ccc2c(n1)[C@](C)(O)C1(CC2)CC1 (racemic)	min	30.09

Return reported T1/2 liver microsomes Monkey values for all items listed beneath this line.
1. [2H][C@]1(O)c2nc(-n3c4nc(Nc5ccc(N6CCC7(CCN(C)CC7)CC6)cc5)ncc4c(=O)n3CC=C)ccc2CCC12CC2 [Compound 37b]
2. C=CCn1c(=O)c2cnc(Nc3ccc(N4CC5CC(C4)N5C)cc3)nc2n1-c1ccc2c(n1)[C@@](C)(O)C1(CC2)CC1
3. C=CCn1c(=O)c2cnc(Nc3ccc(N4CCN(C)CC4)cc3)nc2n1-c1ccc2c(n1)[C@H](O)C1(CC2)CC1 (single isomer, unassigned)

A)
1: 37.98; 2: 15.75; 3: 22.84

###

- test_name: Pharmacokinetics on single dose in mice (iv and po)
- Assay type: in vivo, male ICR mice
- test_conditions: male, mouse, plasma; ICR mice, po 10 mg/kg; read-out: Cmax
experimental_readout: Cmax (ng/mL)
Give bare numbers, in ng/mL.

C=CCn1c(=O)c2cnc(Nc3ccc(N4CCN(C)CC4)cc3)nc2n1-c1cccc(C(C)(C)O)n1 [AZD1775, reference compound] yielded Cmax of 398

###

- measured_target: Wee1 protein (Homo sapiens (Human), UniProt P30291)
- Sequence (P30291 whole entry): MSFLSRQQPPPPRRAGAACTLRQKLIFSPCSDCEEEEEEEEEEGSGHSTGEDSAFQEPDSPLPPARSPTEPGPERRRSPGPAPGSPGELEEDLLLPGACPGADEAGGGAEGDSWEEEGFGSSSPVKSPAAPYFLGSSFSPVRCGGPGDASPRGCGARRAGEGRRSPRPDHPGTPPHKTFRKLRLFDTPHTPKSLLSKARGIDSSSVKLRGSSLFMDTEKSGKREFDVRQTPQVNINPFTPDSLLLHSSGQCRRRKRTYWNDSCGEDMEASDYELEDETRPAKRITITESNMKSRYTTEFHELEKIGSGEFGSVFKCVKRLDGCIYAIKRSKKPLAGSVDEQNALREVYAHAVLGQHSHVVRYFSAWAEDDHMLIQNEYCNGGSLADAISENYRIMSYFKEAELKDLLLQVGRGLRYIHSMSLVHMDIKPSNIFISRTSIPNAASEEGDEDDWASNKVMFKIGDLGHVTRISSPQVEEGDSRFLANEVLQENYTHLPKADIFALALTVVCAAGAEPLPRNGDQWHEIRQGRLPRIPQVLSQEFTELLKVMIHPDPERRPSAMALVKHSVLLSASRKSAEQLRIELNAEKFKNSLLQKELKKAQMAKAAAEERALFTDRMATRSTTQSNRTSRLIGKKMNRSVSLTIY
experimental_readout: IC50

compound	measured_target	experimental_readout	recorded_value
C=CCn1c(=O)c2cnc(Nc3ccc(N4CCN(C)CC4)c(C)c3)nc2n1-c1ccc2c(n1)[C@@](C)(O)C1(CC2)CC1 (single isomer, unassigned) [Compound 23a]	Wee1 protein (Homo sapiens (Human), UniProt P30291)	IC50	≤ 5 nM
C=CCn1c(=O)c2cnc(Nc3ccc(N4CCC5(CCN(C)CC5)CC4)cc3)nc2n1-c1ccc2c(n1)[C@@H](O)C1(CC2)CC1 [Compound 37a]	Wee1 protein (Homo sapiens (Human), UniProt P30291)	IC50	5 to 10 nM

Here's the next entry for you.
C=CCn1c(=O)c2cnc(Nc3ccc(N4CCC(N(C)C)CC4)c(C)c3)nc2n1-c1ccc2c(n1)[C@@H](O)C1(CC2)CC1 (single isomer, unassigned) [Compound 41b] yielded IC50 of ≤ 5 nM

###

- Tested on: Caco-2 cells
- test_name: Membrane permeability in Caco-2 model
- Type: in vitro ADME
- test_conditions: Caco2
- Procedure: Caco-2 cells were purchased from the American Model Tissue Cell Collection (Rockville, MD). The cell culture medium was modified Eagle's medium (MEM) containing 10% inactivated fetal bovine serum and 1% non-essential amino acids. […] After the incubation, dilute the samples on the apical side and basolateral side, and the concentrations of compounds on the apical and basolateral sides were detected by LC-MS/MS, and the concentrations of the compounds were quantified by standard curve.
// label 0 strictly below 20 in Efflux Ration; label 1 otherwise

// below: answered compounds
compound	label_class
C=CCn1c(=O)c2cnc(Nc3ccc(N4CCN(C)CC4)cc3)nc2n1-c1ccc2c(n1)C(C)(O)C1(CC1)C2 (single isomer, unassigned)	label 0
C=CCn1c(=O)c2cnc(Nc3ccc(N4CCC(N(C)C)CC4)cc3)nc2n1-c1ccc2c(n1)[C@@](C)(O)C1(CC2)CC1 [Compound 65a]	label 0
[2H][C@]1(O)c2nc(-n3c4nc(Nc5ccc(N6CC7CC(C6)N7C(C)C)cc5)ncc4c(=O)n3CC=C)ccc2CCC12CC2 [Compound 39b]	label 1

Q) Hi team, for C=CCn1c(=O)c2cnc(Nc3ccc(N4CCN(C)CC4)cc3)nc2n1-c1ccc2c(n1)[C@@](O)(CC)CC2 [ZnC3, reference compound] , is the recorded Efflux Ration at or above 20?
A) label 1

Q) Hi team, for [2H][C@]1(O)c2nc(-n3c4nc(Nc5ccc(N6CCC7(CCN(C)CC7)CC6)cc5)ncc4c(=O)n3CC=C)ccc2CCC12CC2 [Compound 37b] , is the recorded Efflux Ration at or above 20?
A) label 1

Q) Hi team, for C=CCn1c(=O)c2cnc(Nc3ccc(N4CCN(C)CC4)cc3)nc2n1-c1ccc2c(n1)[C@H](O)C1(CC2)CC1 (single isomer, unassigned) , is the recorded Efflux Ration at or above 20?
A) label 0

Q) Hi team, for C=CCn1c(=O)c2cnc(Nc3ccc(N4CCC5(CCN(C)CC5)CC4)cc3)nc2n1-c1ccc2c(n1)C(C)(O)C1(CC1)C2 (stereo not shown) , is the recorded Efflux Ration at or above 20?
A) label 1

###

- measured_target: CYP3A4 (Homo sapiens (Human), UniProt P08684)
- test_name: Cytochrome P450 inhibition (fluorescence), CYP3A4
- Type: in vitro ADME
experimental_readout: IC50

The reported IC50 value, CYP3A4 (Homo sapiens (Human), UniProt P08684), for C=CCn1c(=O)c2cnc(Nc3ccc(N4CCN(C)CC4)cc3)nc2n1-c1ccc2c(n1)C(C)(O)C1(CC1)C2 (stereo not shown) [Compound 3] reads > 10 µM

###

Give Papp A to B for every item shown.
- Test system: Caco-2 cells
- test_name: Membrane permeability in Caco-2 model
- Type: in vitro ADME
- test_conditions: Caco2, 10 μM, 90 min

# count of solved cases: 2
compound	recorded_value
C=CCn1c(=O)c2cnc(Nc3ccc(N4CCN(C)CC4)cc3)nc2n1-c1ccc2c(n1)[C@H](O)C1(CC2)CC1 (single isomer, unassigned)	0.94 10^−6 cm/s
[2H][C@]1(O)c2nc(-n3c4nc(Nc5ccc(N6CCC7(CCN(C)CC7)CC6)cc5)ncc4c(=O)n3CC=C)ccc2CCC12CC2 [Compound 37b]	0.46 10^−6 cm/s

Return reported Papp A to B values for all items listed beneath this line.
1. C=CCn1c(=O)c2cnc(Nc3ccc(N4CCN(C)CC4)cc3)nc2n1-c1ccc2c(n1)[C@@](O)(CC)CC2 [ZnC3, reference compound]
2. C=CCn1c(=O)c2cnc(Nc3ccc(N4CCN(C)CC4)cc3)nc2n1-c1ccc2c(n1)C(C)(O)C1(CC1)C2 (single isomer, unassigned)
3. C=CCn1c(=O)c2cnc(Nc3ccc(N4CCC(N(C)C)CC4)cc3)nc2n1-c1ccc2c(n1)[C@@](C)(O)C1(CC2)CC1 [Compound 65a]
4. [2H][C@]1(O)c2nc(-n3c4nc(Nc5ccc(N6CC7CC(C6)N7C(C)C)cc5)ncc4c(=O)n3CC=C)ccc2CCC12CC2 [Compound 39b]
5. C=CCn1c(=O)c2cnc(Nc3ccc(N4CCC5(CCN(C)CC5)CC4)cc3)nc2n1-c1ccc2c(n1)C(C)(O)C1(CC1)C2 (stereo not shown)

A)
1: 0.42 10^−6 cm/s; 2: 0.73 10^−6 cm/s; 3: 0.96 10^−6 cm/s; 4: 0.38 10^−6 cm/s; 5: 0.41 10^−6 cm/s
